Hello, the source for this data is patent US5714469A, in case you need it.

System: clinical isolate of E. coli isolated from sputum
method_summary: Antibiotic sensitivity by disc-agar diffusion technique
Format: cell-based
quantity: antibiotic sensitivity of the E. coli isolate

A selection of reference data follows.
chemical_string | result
O=C(N[C@H](CO)[C@H](O)c1ccc([N+](=O)[O-])cc1)C(Cl)Cl | sensitive
CC[C@H]1OC(=O)[C@H](C)[C@@H](O[C@H]2C[C@@](C)(OC)[C@@H](O)[C@H](C)O2)[C@H](C)[C@@H](O[C@@H]2O[C@H](C)C[C@H](N(C)C)[C@H]2O)[C@](C)(O)C[C@@H](C)C(=O)[C@H](C)[C@@H](O)[C@]1(C)O | resistant
CN(C)[C@@H]1C(O)=C(C(N)=O)C(=O)[C@@]2(O)C(O)=C3C(=O)c4c(O)cccc4[C@@](C)(O)[C@H]3C[C@@H]12 | sensitive
CC1(C)S[C@@H]2[C@H](NC(=O)[C@H](N)c3ccccc3)C(=O)N2[C@H]1C(=O)O | sensitive

Field: next compound
antibiotic sensitivity of the E. coli isolate for CN[C@H](CC(C)C)C(=O)N[C@H]1C(=O)N[C@@H](CC(N)=O)C(=O)N[C@H]2C(=O)N[C@H]3C(=O)N[C@H](C(=O)N[C@H](C(=O)O)c4cc(O)cc(O)c4-c4cc3ccc4O)[C@H](O)c3ccc(c(Cl)c3)Oc3cc2cc(c3O[C@@H]2O[C@H](CO)[C@@H](O)[C@H](O)[C@H]2O[C@H]2C[C@](C)(N)[C@H](O)[C@H](C)O2)Oc2ccc(cc2Cl)[C@H]1O is resistant

---

Tested on: clinical isolate of E. coli isolated from sputum
method_summary: Antibiotic sensitivity by disc-agar diffusion technique
Assay type: cell-based
quantity: antibiotic sensitivity of the E. coli isolate

chemical_string | experimental_system | result
NC[C@H]1O[C@H](O[C@H]2[C@H](O)[C@@H](O[C@H]3O[C@H](CO)[C@@H](O)[C@H](N)[C@H]3O)[C@H](N)C[C@@H]2N)[C@H](O)[C@@H](O)[C@@H]1O | clinical isolate of E. coli isolated from sputum | sensitive
CC(=O)OCC1=C(C(=O)O)N2C(=O)[C@@H](NC(=O)Cc3cccs3)[C@H]2SC1 | clinical isolate of E. coli isolated from sputum | sensitive
